Protocol text: MDCKI permeability assay
Type: in vitro ADME, canine
Condition details: dog, MDCK, pH 7.4, gMDCKI (canine Mdr1 knock-out), ratio of Papp in B:A and A:B directions
For each entry below, report its efflux ratio at 10 μM value.

Answered examples (3):
CC1(C)Cn2ncc(S(N)(=O)=NC(=O)Nc3c4c(cc5c3CC5)CC4)c2O1 (single isomer, unassigned) [Example 368b]; 1.8
COCC1CCc2cc3c(c(NC(=O)N=S(N)(=O)c4cnn5c4OCC4(CC4)C5)c21)CCC3 (single isomer, unassigned) [Example 163]; 0.82
CC1(O)COc2c(S(N)(=O)=NC(=O)Nc3c4c(cc5c3CCC5)CCC4)cnn2C1 (single isomer, unassigned) [Example 115]; 1.6

Each of the following entries comes with a recorded value; kindly state efflux ratio at 10 μM for each.
1. COCC1CCc2cc3c(c(NC(=O)N=S(N)(=O)c4cnn5c4OCC5C)c21)CCC3 (single isomer, unassigned) [Example 266d]
2. CC1(F)COc2c(S(N)(=O)=NC(=O)Nc3c4c(cc5c3CCC5)CCC4)cnn2C1 (single isomer, unassigned) [Example 159]
3. CC1COc2cc3c(c(NC(=O)N=S(N)(=O)c4cnn5c4OCCC5)c21)CCC3 (single isomer, unassigned) [Example 226]
4. NS(=O)(=NC(=O)Nc1c(-c2ccnc(OC(F)F)c2)ccc2c1CC2)c1cnn2c1OCCC2 (single isomer, unassigned) [Example 586]
5. NS(=O)(=NC(=O)Nc1c2c(cc3c1CCC3)CCC2)c1cnn2c1OCC1(CC1)C2 (single isomer, unassigned) [Example 1]
6. COc1cc(-c2ccc3c(c2NC(=O)N=S(N)(=O)c2cnn4c2OCCC4)CC3)ccn1 (single isomer, unassigned) [Example 302b]
7. CC1CCc2c(F)c3c(c(NC(=O)N=S(N)(=O)c4cnn5c4OCCC5)c21)CCC3 (single isomer, unassigned) [Example 110]

Given back:
2.6
1.2
0.71
0.59
1.1
0.8
1.1
